Assignment: determine reported Ratio of MSA-KD to HSA-KD for the given binders.
# system tested: T1, mouse serum albumin (mouse, UniProt P07724 25-608)
# T1 construct: also called MSA
# T1 sequence (P07724 25-608 limits assumed): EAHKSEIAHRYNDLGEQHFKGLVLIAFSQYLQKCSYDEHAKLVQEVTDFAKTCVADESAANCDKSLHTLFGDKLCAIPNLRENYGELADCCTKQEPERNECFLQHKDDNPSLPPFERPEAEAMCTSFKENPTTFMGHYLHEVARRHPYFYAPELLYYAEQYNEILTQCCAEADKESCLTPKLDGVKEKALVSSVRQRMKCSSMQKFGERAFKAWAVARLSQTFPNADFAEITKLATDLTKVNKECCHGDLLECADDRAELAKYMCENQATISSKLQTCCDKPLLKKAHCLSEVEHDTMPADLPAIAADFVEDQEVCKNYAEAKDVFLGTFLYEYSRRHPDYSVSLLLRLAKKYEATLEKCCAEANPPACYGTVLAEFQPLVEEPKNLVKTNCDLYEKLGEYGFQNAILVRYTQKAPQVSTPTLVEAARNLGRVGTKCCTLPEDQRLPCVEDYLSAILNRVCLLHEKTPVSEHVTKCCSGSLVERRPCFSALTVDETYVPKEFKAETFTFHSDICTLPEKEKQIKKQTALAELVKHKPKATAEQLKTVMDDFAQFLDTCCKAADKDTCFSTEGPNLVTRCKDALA
# experiment description: ratio of the Octet KD for mouse serum albumin to that for human serum albumin

CNG-HSA-114 (VHH) VHH: KVQLVESGGGLVQPGNSLRLSCAASGFTFSSFGMSWVRQAPGKGLEWVSSISGSGSDTLTADSVKGRFTISRDNSKNTLYLQMNSLRAEDTAVYYCTIGGSLVRSSQGTLVTVSS = 1.2
CNG-HSA-104 (VHH) VHH: KVQLLESGGGLVQPGGSLRLSCAASGFTFHSFGMSWVRQAPGKGLEWVSSISGSGSDTLYADSVKGRFTISRDNSKNTLYLQMNSLRPEDTAVYYCTIGGSLSRSSQGTLVTVSS = 6.57
CNG-HSA-110 (VHH) VHH: KVQLVESGGGLVQPGNSLRLSCAASGFTFSSFGMSWVRQAPGKGLEWVSSISGSGGDTLYADSAKGRFTISRDNSKNTLYLQMNSLRPEDTAVYYCTIGGSLSRSSQGTLVTVSS = 6.82
CNG-HSA-109 (VHH) VHH: KVQLVESGGGLVQPGNSLRLSCAASGFTFGSFGMSWVRQAPGKGPEWVSSISGSGSDTLYADSVKGRFTISRDNSKNTLYLQMNSLRPEDTAVYYCTIGGSLSRSSQGTLVTVSS = 3.4
CNG-HSA-101 (VHH) VHH: KVQLVESGGGLVQPGGSLRLSCAASGFTFSSFGMTWVRQAPGKGLEWVSSISGSGSDTLYADSVRGRFTISRDNSKNTLYLQMNSLRAEDTAVYYCTIGGSLSPSSQGTLVTVSS = 3.17
CNG-HSA-105 (VHH) VHH: EVQLLESGGGLVQPGGSLRLSCAASGFVFSSFGMSWVRQAPGKGLEWVSSISGSGSDTLYADSVKGRFTISRDNSKNTLYLQMNSLRPEDTAVYYCTIGGSLSRSSQGTLVTVSS = 10.1

For every item below, please supply its Ratio of MSA-KD to HSA-KD.
1. CNG-HSA-120 (VHH) VHH: KVQLVESGGGLVQPGGSLRLSCAASGFTFSSFGMSWVRQAPGKGPEWVSSISGSGSDTLYADSVKGRFTISRDNSKNTLYLQMNSLRPEDTAVYYCTIGGSLKQSSQGTLVTVSS
2. CNG-HSA-108 (VHH) VHH: KVQLVESGGGLVQPGGSLRLSCAASGFTFGSFGMSWVRQAPGKGLEWVSSISGSGADTLYADSVKGRFTISRDNSKNTLYLQMNSLRAEDTAVYYCTIGGSLRASSQGTLVTVSS
3. CNG-HSA-119 (VHH) VHH: KVQLVESGGGLVQPGNSLRLSCAASGFTFSSFGMSWVRQAPGKGLEWVSSISGSGSDALYADSAKGRFTISRDNAKTTLYLQMNSLRAEDTAVYYCTIGGSLSPSSQGTLVTVSS

1.37
1.3
5.59
